# SYSTEM TESTED: Prostaglandin E2 receptor EP2 subtype (Homo sapiens)
# ASSAY METHOD TEXT: modulation of human EP2 prostaglandin signaling – cell-based, HTRF cAMP, PGE2 stimulation, primary screen (AID 940);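 note: rat C6 glioma line stably carrying human EP2 under a CMV promoter; the protocol text gives 20 µM as final concentration; 100% = response of wells given 1 µM PGE2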
# SETUP CONDITIONS: EP2-expressing cells, cAMP HTRF FRET, PGE2 co-stimulation; at 25 µM; stronger effect = higher value
Hit rate of the full screen: of about 260,000 compounds, about 2,200 (0.85%) were called active. The full list was thinned out, with actives kept by preference.
ASSAY ENDPOINT: induction (%)

>  <MOLECULE>
COc1ccccc1/C=C/CN1C2CCC1CC(O)(c1ccccc1F)C2 (configuration not stated)

>  <ASSAY ENDPOINT>
induction

>  <RESULT>
-60.2

$$$$
>  <MOLECULE>
O=C(CN1C2CCC1CC(O)(c1ccccn1)C2)N1c2ccccc2Sc2ccccc21 (configuration not stated)

>  <ASSAY ENDPOINT>
induction

>  <RESULT>
8.29

$$$$
>  <MOLECULE>
OC12CCCCC1CN(Cc1ccnc3ccccc13)CC2 (configuration not stated)

>  <ASSAY ENDPOINT>
induction

>  <RESULT>
-29.6

$$$$
>  <MOLECULE>
O=C(CN1C2CCC1CC(O)(c1ccco1)C2)NCc1ccccc1 (configuration not stated)

>  <ASSAY ENDPOINT>
induction

>  <RESULT>
-18.4

$$$$
>  <MOLECULE>
O=C1CCCN1C(=O)c1cc(Cl)cc(Cl)c1

>  <ASSAY ENDPOINT>
induction

>  <RESULT>
-0.43

$$$$
>  <MOLECULE>
N#CC1=C(N)Oc2c(c(=O)oc3ccccc23)C1c1cc2c(cc1Cl)OCO2 (configuration not stated)

>  <ASSAY ENDPOINT>
induction

>  <RESULT>
0.48

$$$$
>  <MOLECULE>
CC(c1ccccc1)(c1ccccc1)c1ccncc1

>  <ASSAY ENDPOINT>
induction

>  <RESULT>
61.2

$$$$
